Data provenance is patent US10428140B2.

# Tgt: T1, human EphA8 (Homo sapiens, UniProt P29322)
# T1 construct: a protein of the extracellular region of each human Eph receptor fused with the SEAP protein and the His tag; made in house; host or cells: Expi293F cells (culture supernatant)
# T1 sequence (P29322 28-542 limits assumed): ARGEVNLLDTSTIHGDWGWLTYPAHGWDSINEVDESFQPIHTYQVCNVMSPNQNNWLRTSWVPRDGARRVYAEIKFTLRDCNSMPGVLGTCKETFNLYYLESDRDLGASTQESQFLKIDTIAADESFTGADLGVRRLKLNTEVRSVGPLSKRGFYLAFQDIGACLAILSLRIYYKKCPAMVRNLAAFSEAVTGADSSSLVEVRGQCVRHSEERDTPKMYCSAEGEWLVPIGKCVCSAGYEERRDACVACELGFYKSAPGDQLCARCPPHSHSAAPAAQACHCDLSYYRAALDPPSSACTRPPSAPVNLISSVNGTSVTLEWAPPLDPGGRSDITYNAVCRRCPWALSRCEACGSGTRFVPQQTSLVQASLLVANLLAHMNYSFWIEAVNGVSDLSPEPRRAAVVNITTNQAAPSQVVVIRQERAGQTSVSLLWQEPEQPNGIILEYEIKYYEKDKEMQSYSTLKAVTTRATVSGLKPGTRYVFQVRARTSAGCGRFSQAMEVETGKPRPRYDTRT
# Assay Notes: Selectivity ELISA of humanized antibodies for human Eph receptor
# Type: binding
# Cond: coated protein 1 nM
Measurement Kind: hEphA8-SEAP-: absorbance at 450 nm, percentage with respect to hEphA4-SEAP-His as 100% (%)
# output: bare number, implied unit %

Molecule	Recorded Value
86 (antibody, V domains shown, constant regions without entry; synthetic humanized antibody light chain variable region sequence; synthetic humanized antibody heavy chain variable region sequence) VL: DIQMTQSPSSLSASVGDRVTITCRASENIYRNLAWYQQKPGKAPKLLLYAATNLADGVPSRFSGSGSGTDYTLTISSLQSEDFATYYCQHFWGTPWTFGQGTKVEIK VH: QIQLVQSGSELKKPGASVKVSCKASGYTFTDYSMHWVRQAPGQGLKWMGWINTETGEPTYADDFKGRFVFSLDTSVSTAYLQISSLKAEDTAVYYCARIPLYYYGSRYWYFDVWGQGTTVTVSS	5.7

input: Give hEphA8-SEAP-: absorbance at 450 nm, percentage with respect to hEphA4-SEAP-His as 100% for 145 (antibody, V domains shown, synthetic humanized antibody heavy chain variable region sequence; synthetic humanized antibody light chain variable region sequence) VH: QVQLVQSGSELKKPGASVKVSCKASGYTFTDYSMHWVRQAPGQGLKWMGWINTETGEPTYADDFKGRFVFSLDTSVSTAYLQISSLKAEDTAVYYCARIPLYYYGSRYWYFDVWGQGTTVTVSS VL: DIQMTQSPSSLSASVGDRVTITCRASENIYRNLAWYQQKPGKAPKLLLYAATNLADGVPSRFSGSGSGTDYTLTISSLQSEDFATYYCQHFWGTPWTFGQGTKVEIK
output: 6.6
